Ref: patent US20250034136A1

Test system: p21 induction in HCT116 cells
assay.remarks: p21 induction in HCT116 cells
Type: cell-based
study.conditions: Homo sapiens, HCT-116, 24 h, HCT116 cells, 24 h compound incubation; read-out: P21_EC50
Experimental: The colon carcinoma cell line HCT116 was obtained from ATCC and cultured in growth medium consisting of Mccoy's 5A Medium (Gibco 16600108) supplemented with 10% FBS (Transgene FS201-02) and 100 units/mL penicillin-streptomycin (Gibco 15140122) and maintained at 37° C. under 5% CO2. […] Finally, the p21 signal and the GAPDH signal were quantified using a LI-COR Odyssey CLx Imager machine reading at 800 nm and 700 nm, respectively. […]
Each entry below carries its reported EC50.

{"columns": ["compound", "measurement"],
 "data": [
  ["CCc1c(N2CCN(C(=O)c3c(Oc4cnn(C)c4)ncc(C)c3O)[C@H]3CC[C@@H]32)c(=O)c2nc(N(C)C)cnc2n1CC(=O)Nc1ccc(C(F)(F)F)cc1Cl", "< 0.5 µM"],
  ["CCc1c(N2CCN(C(=O)c3ncnc(C)c3O)C[C@@H]2C)c(=O)c2nc(N(C)C)nnc2n1CC(=O)Nc1ccc(C(F)(F)F)cc1Cl", "0.5 to 2 µM"],
  ["CCc1c(N2CCN(C(=O)c3ncnc(C)c3O)CC2)c(=O)c2nc3cc(C)sc3nc2n1CC(=O)NC12CC(C(F)(F)F)(C1)C2", "> 5 µM"],
  ["CCc1c(N2CCN(C(=O)c3ncnc(C)c3O)CC2)c(=O)c2nc(C=C3CC(C)(O)C3)cnc2n1CC(=O)Nc1ccc(C(F)(F)F)cc1Cl (stereo not drawn)", "0.5 to 2 µM"],
  ["CCc1c(N2CCN(C(=O)c3ncnc(C)c3O)CC2)c(=O)c2nc(N(C)C3CC(C)(O)C3)cnc2n1CC(=O)Nc1ccc(C(F)(F)F)cc1Cl (stereo not drawn)", "2 to 5 µM"],
  ["CCc1c(N2CCN(C(=O)c3ncnc(C)c3O)[C@@H](C(F)F)C2)c(=O)c2nc(N(C)C)cnc2n1CC(=O)Nc1ccc(C(F)(F)F)cc1Cl", "> 5 µM"]
]}

stdin: Quick one: EC50 for CCc1c(N2CCN(C(=O)c3ncnc(C)c3O)[C@H]3CC[C@@H]32)c(=O)c2nc(N3CC(C)(O)C3)cnc2n1CC(=O)Nc1ccc(C(F)(F)F)cc1Cl ?
stdout: 0.5 to 2 µM

stdin: Give its EC50 value. Item: CCc1c(N2CCN(C(=O)c3ncnc(C)c3O)[C@H](C)[C@H]2C)c(=O)c2nc(N(C)C)cnc2n1CC(=O)Nc1ccc(C(F)(F)F)cc1Cl (single isomer, unassigned)
stdout: > 5 µM

stdin: What does the record list as EC50 for CCc1c(N2CCN(C(=O)c3ncnc(C)c3O)[C@H]3CC[C@@H]32)c(=O)c2nc(C3CC3)cnc2n1CC(=O)Nc1ccc(C(F)(F)F)cc1F ?
stdout: < 0.5 µM

stdin: For CCc1c(N2CCN(C(=O)c3ncnc(C)c3O)C[C@@H]2C)c(=O)c2nc(N3CC[C@@H]3COC)cnc2n1CC(=O)Nc1ccc(C(F)(F)F)cc1Cl , what is its reported EC50?
stdout: 0.5 to 2 µM

stdin: Would you kindly share the measured EC50 for CCc1c(N2CCN(C(=O)c3ncnc(C)c3O)CC2)c(=O)c2nc(N(C)C)cnc2n1CC(=O)NC12CC(C(F)(F)F)(C1)C2 ?
stdout: > 5 µM

stdin: # input compound: CCc1c(N2CCN(C(=O)c3ncnc(C)c3O)[C@H]3CC[C@@H]32)c(=O)c2nc(C=C(C)C)nnc2n1CC(=O)Nc1ccc(C(F)(F)F)cc1Cl ; wanted: its EC50
stdout: < 0.5 µM

stdin: EC50 lookup needed for CCc1c(N2CCN(C(=O)c3ncc4c(c3O)CCO4)CC2)c(=O)c2nc(N(C)C3CC3)cnc2n1CC(=O)Nc1ccc(C(F)(F)F)cc1Cl , thanks.
stdout: < 0.5 µM

stdin: EC50 for CCc1c(N2CCN(C(=O)c3ncnc(C)c3O)CC2)c(=O)c2nc(/C=C/C(C)(C)O)cnc2n1CC(=O)Nc1ccc(C(F)(F)F)cc1Cl ?
stdout: > 5 µM

stdin: What value of measured EC50 is listed for CCc1c(N2CCN(C(=O)c3ncnc(C)c3O)CC2)c(=O)c2nc(N(C)C3(C)CC3)cnc2n1CC(=O)Nc1ccc(C(F)(F)F)cc1Cl ?
stdout: < 0.5 µM

stdin: Reported EC50, compound CCc1c(N2CCN(C(=O)c3ncnc(C)c3O)CC2)c(=O)c2nc(C(=O)N(C)C)cnc2n1CC(=O)Nc1ccc(C(F)(F)F)cc1Cl : ____
stdout: > 5 µM

stdin: Which EC50 is listed for CCc1c(N2CCN(C(=O)c3ncnc(C)c3O)[C@H]3CC[C@@H]32)c(=O)c2nc(C)c(C)nc2n1CC(=O)Nc1ccc(C(F)(F)F)cc1F ?
stdout: < 0.5 µM

stdin: Any idea what EC50 was measured for CCc1c(N2CCN(C(=O)c3ncnc(C)c3O)CC2)c(=O)c2nc(N3CCC(C)(O)C3)cnc2n1CC(=O)Nc1ccc(C(F)(F)F)cc1Cl (stereo not drawn) ?
stdout: > 5 µM
